- studyTarget: hSERT (Homo sapiens, UniProt P31645)
- Construct: expressed in transfected cells; host or cells: HEK293 (stably transfected, G418 selection)
- Sequence (P31645 whole entry): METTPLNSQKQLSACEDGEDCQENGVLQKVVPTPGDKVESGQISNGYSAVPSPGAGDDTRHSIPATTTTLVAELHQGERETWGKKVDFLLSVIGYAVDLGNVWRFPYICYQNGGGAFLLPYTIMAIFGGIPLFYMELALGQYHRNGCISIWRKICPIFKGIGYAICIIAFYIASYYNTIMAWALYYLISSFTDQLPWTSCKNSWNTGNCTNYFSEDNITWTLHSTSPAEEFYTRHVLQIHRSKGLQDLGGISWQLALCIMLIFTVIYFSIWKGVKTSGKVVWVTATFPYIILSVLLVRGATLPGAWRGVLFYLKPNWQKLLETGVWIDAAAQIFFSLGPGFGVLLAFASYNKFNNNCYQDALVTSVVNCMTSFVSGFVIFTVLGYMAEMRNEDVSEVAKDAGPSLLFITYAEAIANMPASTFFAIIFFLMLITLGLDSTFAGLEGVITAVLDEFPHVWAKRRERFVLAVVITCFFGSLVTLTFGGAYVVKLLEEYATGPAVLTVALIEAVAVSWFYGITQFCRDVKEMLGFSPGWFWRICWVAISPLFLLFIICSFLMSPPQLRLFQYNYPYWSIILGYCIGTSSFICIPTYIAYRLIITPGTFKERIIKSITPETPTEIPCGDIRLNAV
- testMethodNotes: hSERT neurotransmitter uptake assay
- Type: cell-based
- assaySetup: serotonin reuptake inhibition, HEK293-hSERT cells; read-out: SERT pIC50 (converted)
measurementKind: IC50

What does the data say about its IC50? Entry: CS(=O)(=O)C[C@@H](Oc1ccc(C(F)(F)F)nc1)[C@@H]1CCNC1 (stereo in doubt)
≤ 100 nM

What does the data say about its IC50? Entry: O=S(=O)(C[C@@H](Oc1ccc(C(F)(F)F)cc1)[C@H]1CCNC1)c1ccccc1
≤ 10 nM

What does the data say about its IC50? Entry: CS(=O)(=O)C[C@H](Oc1ccc(Cl)cn1)[C@H]1CCNC1 (stereo in doubt)
≤ 100 nM

What does the data say about its IC50? Entry: CS(=O)(=O)C[C@@H](Oc1ccc(OC(F)(F)F)cc1)[C@H]1CCNC1
≤ 100 nM

----------
- studyTarget: hSERT (Homo sapiens, UniProt P31645)
- Construct: expressed in transfected cells; host or cells: HEK293 (stably transfected, G418 selection)
- testMethodNotes: hSERT neurotransmitter uptake assay
- Type: cell-based
- assaySetup: serotonin reuptake inhibition, HEK293-hSERT cells; read-out: SERT pIC50 (converted)
Here, each record is paired with measured IC50 data.

Here are 3 molecules together with their reported answers.
What does the data say about its IC50? Entry: CS(=O)(=O)C[C@H](Oc1ccc(OC(F)(F)F)cc1)[C@H]1CCNC1
≤ 0.1 µM

What does the data say about its IC50? Entry: CS(=O)(=O)C[C@@H](Oc1ccc(C(F)(F)F)c(C#N)c1)[C@H]1CCNC1
≤ 0.1 µM

What does the data say about its IC50? Entry: CS(=O)(=O)C[C@H](Oc1ccc(Cl)c(C#N)c1)[C@H]1CCNC1 (stereo in doubt)
≤ 0.01 µM

Here is another molecule to look at.
What does the data say about its IC50? Entry: CS(=O)(=O)C[C@@H](Oc1ccc(C(F)(F)F)nc1)[C@H]1CCNC1
≤ 0.1 µM

----------
Here, each record is paired with measured Free plasma AUC/Free brain AUC data.
- testMethodNotes: Peripheral selectivity (Assay 4): free plasma versus free brain exposure after oral dosing
- Format: in vivo
- assaySetup: fed male Sprague-Dawley rats, 0.5-24 hours post-dose, unbound fractions by equilibrium dialysis

Here are 3 compounds together with their reported answers.
What does the data say about its Free plasma AUC/Free brain AUC? Entry: CS(=O)(=O)C[C@@H](Oc1ccc(C(F)(F)F)cn1)[C@@H]1CCNC1
>20

What does the data say about its Free plasma AUC/Free brain AUC? Entry: CS(=O)(=O)C[C@H](Oc1ccc([N+](=O)[O-])cc1)[C@@H]1CCNC1
>10

What does the data say about its Free plasma AUC/Free brain AUC? Entry: CS(=O)(=O)C[C@@H](Oc1ccc([N+](=O)[O-])cc1)[C@@H]1CCNC1
>20

Here is another compound to look at.
What does the data say about its Free plasma AUC/Free brain AUC? Entry: CS(=O)(=O)C[C@@H](Oc1ccc(C(F)(F)F)cc1)[C@H]1CCNC1
>70

----------
- studyTarget: hSERT (Homo sapiens, UniProt P31645)
- Construct: expressed in transfected cells; host or cells: HEK293 (stably transfected, G418 selection)
- testMethodNotes: hSERT neurotransmitter uptake assay
- Type: cell-based
- assaySetup: serotonin reuptake inhibition, HEK293-hSERT cells; read-out: SERT pIC50 (converted)
- From the text: Neurotransmitter uptake assays were used to measure inhibition of ^3H-serotonin (^3H-5-HT) uptake into cells expressing hSERT in order to determine the pIC50 values of test compounds at the transporter, similar to the procedures described in Tsuruda et al. (2010) Journal of Pharmacological and Toxicological Methods 61(2):192-204. […]
measurementKind: IC50

Here are 2 compounds together with their reported answers.
What does the data say about its IC50? Entry: CC(C)S(=O)(=O)C[C@@H](Oc1ccc(C(F)(F)F)cc1)[C@H]1CCNC1
≤ 0.01 µM

What does the data say about its IC50? Entry: CS(=O)(=O)C[C@H](Oc1ccc([N+](=O)[O-])cc1)[C@@H]1CCNC1
≤ 0.1 µM

Next:
What does the data say about its IC50? Entry: CS(=O)(=O)C[C@H](Oc1ccc(C(F)(F)F)cc1)[C@H]1CCNC1
≤ 0.01 µM

What does the data say about its IC50? Entry: O=S(=O)(CCC(Oc1ccc(C(F)(F)F)cc1)[C@H]1CCNC1)c1ccccc1 (stereo partly shown)
≤ 0.01 µM

What does the data say about its IC50? Entry: CS(=O)(=O)C[C@@H](Oc1ccc(OC(F)(F)F)cc1)[C@@H]1CCNC1
≤ 0.01 µM

What does the data say about its IC50? Entry: CCS(=O)(=O)C[C@@H](Oc1ccc(C(F)(F)F)cc1)[C@H]1CCNC1
≤ 0.01 µM

What does the data say about its IC50? Entry: CS(=O)(=O)C[C@H](Oc1ccc(Cl)nc1)[C@H]1CCNC1 (stereo in doubt)
≤ 0.1 µM

----------
- studyTarget: hSERT (Homo sapiens, UniProt P31645)
- Construct: expressed in transfected cells; host or cells: HEK293 (stably transfected, G418 selection)
- testMethodNotes: hSERT neurotransmitter uptake assay
- Format: cell-based
- assaySetup: serotonin reuptake inhibition, HEK293-hSERT cells; read-out: SERT pIC50 (converted)
Here, each record is paired with measured IC50 data.

Here are 3 compounds together with their reported answers.
What does the data say about its IC50? Entry: CS(=O)(=O)C[C@@H](Oc1ccc(C(F)(F)F)cc1)[C@@H]1CCNC1
≤ 10 nM

What does the data say about its IC50? Entry: CS(=O)(=O)C[C@@H](Oc1ccc([N+](=O)[O-])cc1)[C@H]1CCNC1
≤ 100 nM

What does the data say about its IC50? Entry: CS(=O)(=O)C[C@@H](Oc1ccc(C(F)(F)F)cc1)[C@H]1CCNC1
≤ 10 nM

Next:
What does the data say about its IC50? Entry: COC(=O)CS(=O)(=O)C[C@@H](Oc1ccc(C(F)(F)F)cc1)[C@H]1CCNC1
≤ 10 nM

What does the data say about its IC50? Entry: CC(=O)NCCS(=O)(=O)C[C@@H](Oc1ccc(C(F)(F)F)cc1)[C@H]1CCNC1
≤ 10 nM

What does the data say about its IC50? Entry: CS(=O)(=O)C[C@@H](Oc1ccc(Cl)nc1)[C@H]1CCNC1
≤ 100 nM

What does the data say about its IC50? Entry: CS(=O)(=O)C[C@H](Oc1ccc([N+](=O)[O-])cc1)[C@H]1CCNC1
≤ 100 nM

What does the data say about its IC50? Entry: CC(=O)Nc1ccc(S(=O)(=O)C[C@@H](Oc2ccc(C(F)(F)F)cc2)[C@H]2CCNC2)cc1
≤ 10 nM

What does the data say about its IC50? Entry: COc1cc([N+](=O)[O-])ccc1O[C@@H](CS(C)(=O)=O)[C@H]1CCNC1
≤ 100 nM

----------
- studyTarget: hSERT (Homo sapiens, UniProt P31645)
- Construct: expressed in transfected cells; host or cells: HEK293 (stably transfected, G418 selection)
- testMethodNotes: hSERT neurotransmitter uptake assay
- Type: cell-based
- assaySetup: serotonin reuptake inhibition, HEK293-hSERT cells; read-out: SERT pIC50 (converted)
measurementKind: IC50

Here are 4 compounds together with their reported answers.
What does the data say about its IC50? Entry: CS(=O)(=O)C[C@H](Oc1ccc(C(F)(F)F)cc1)[C@@H]1CCNC1
≤ 10 nM

What does the data say about its IC50? Entry: CS(=O)(=O)C[C@@H](Oc1ccc([N+](=O)[O-])cc1)[C@@H]1CCNC1
≤ 100 nM

What does the data say about its IC50? Entry: CS(=O)(=O)C[C@@H](Oc1ccc(C(F)(F)F)cn1)[C@@H]1CCNC1
≤ 100 nM

What does the data say about its IC50? Entry: CC(C)S(=O)(=O)CCC(Oc1ccc(C(F)(F)F)cc1)[C@H]1CCNC1 (single isomer, unassigned)
≤ 10 nM

Next:
What does the data say about its IC50? Entry: CS(=O)(=O)CCC(Oc1ccc(C(F)(F)F)cc1)[C@H]1CCNC1 (single isomer, unassigned)
≤ 100 nM

What does the data say about its IC50? Entry: CS(=O)(=O)C[C@@H](Oc1ccc(C(F)(F)F)cn1)[C@H]1CCNC1
≤ 10 nM

What does the data say about its IC50? Entry: COc1cc([N+](=O)[O-])ccc1O[C@H](CS(C)(=O)=O)[C@@H]1CCNC1
≤ 100 nM

----------
- studyTarget: hSERT (Homo sapiens, UniProt P31645)
- Construct: expressed in transfected cells; host or cells: HEK293 (stably transfected, G418 selection)
- testMethodNotes: hSERT neurotransmitter uptake assay
- Type: cell-based
- assaySetup: serotonin reuptake inhibition, HEK293-hSERT cells; read-out: SERT pIC50 (converted)
measurementKind: IC50

Here are 5 compounds together with their reported answers.
What does the data say about its IC50? Entry: Cc1cc(Cl)ccc1O[C@@H](CS(C)(=O)=O)[C@H]1CCNC1
≤ 0.01 µM

What does the data say about its IC50? Entry: COc1cc([N+](=O)[O-])ccc1O[C@@H](CS(C)(=O)=O)[C@@H]1CCNC1
≤ 0.1 µM

What does the data say about its IC50? Entry: CS(=O)(=O)C[C@@H](Oc1ccc(Cl)cn1)[C@H]1CCNC1
≤ 0.1 µM

What does the data say about its IC50? Entry: O=S(=O)(CCO)C[C@@H](Oc1ccc(C(F)(F)F)cc1)[C@H]1CCNC1
≤ 0.01 µM

What does the data say about its IC50? Entry: CS(=O)(=O)CCC(Oc1ccc(C(F)(F)F)cc1)[C@@H]1CCNC1 (single isomer, unassigned)
≤ 0.1 µM

Next:
What does the data say about its IC50? Entry: CS(=O)(=O)C[C@H](Oc1ccc(C(F)(F)F)c(C#N)c1)[C@H]1CCNC1 (stereo in doubt)
≤ 0.01 µM

What does the data say about its IC50? Entry: CS(=O)(=O)C[C@H](Oc1ccc(Cl)cc1)[C@H]1CCNC1
≤ 0.1 µM

What does the data say about its IC50? Entry: CS(=O)(=O)C[C@@H](Oc1ccc(Cl)c(C#N)c1)[C@H]1CCNC1
≤ 0.01 µM

What does the data say about its IC50? Entry: CS(=O)(=O)C[C@@H](Oc1ccc(Cl)c(C#N)c1)[C@@H]1CCNC1 (stereo in doubt)
≤ 0.1 µM

What does the data say about its IC50? Entry: CS(=O)(=O)C[C@@H](Oc1ccc(C(F)(F)F)nc1)[C@@H]1CCNC1
≤ 0.1 µM

What does the data say about its IC50? Entry: O=S(=O)(C[C@@H](Oc1ccc(C(F)(F)F)cc1)[C@H]1CCNC1)c1ccncc1
≤ 0.1 µM

Data provenance: patent US9000191B2
